# Test description: NCI Yeast Anticancer Drug Screen. Data for the cln2 rad14 strain (AID 165);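 note: 0% = growth equal to vehicle treated cultures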
# Experimental conditions: S. cerevisiae cln2 rad14 strain, at 50.0 µM
This is part of a sample that, as a whole, favours compounds with a hit. Of some 79,000 tested, about 15% had one in any assay. Active and inactive are the calls of the source. Cut-off read from the data, not from the text of the source: active = growth inhibition above about 70%; inactive = the rest.
# output must be one of label 1 = active, label 0 = inactive

**Q:** GET /call?item= C=C1CCC2[C@@H](CCC3[C@]2(C)CCC[C@]3(C)C(=O)OC)[C@@H]1CC=O (stereo not given in full) returns the recorded outcome of this test.
**A:** label 0

**Q:** GET /call?item= CN(C)CCN1CCc2c([nH]c3ccccc23)C1c1cccnc1 (stereo not given) returns the recorded outcome of this test.
**A:** label 0

**Q:** GET /call?item= CCCCCCC[CH2][Sn]1([CH2]CCCCCCC)[O]C2C(CO)OC(n3ccc4c(N)ncnc43)C2[O]1 (stereo not given) returns the recorded outcome of this test.
**A:** label 1

**Q:** GET /call?item= O=C(OCCNC(=O)N1CCOCC1)OCCNC(=O)N1CCOCC1 returns the recorded outcome of this test.
**A:** label 0

**Q:** GET /call?item= Cc1cccc(N(CCOS(C)(=O)=O)CCOS(C)(=O)=O)c1 returns the recorded outcome of this test.
**A:** label 0

---

# Test description: NCI Yeast Anticancer Drug Screen. Data for the sgs1 mgt1 strain (AID 161);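 note: 0% = growth of cultures given vehicle only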
# Experimental conditions: S. cerevisiae sgs1 mgt1 strain, at 50.0 µM, hits give high values
Compounds without any hit were thinned out: in the full panel of roughly 79,000, 15% have a hit.
Readout type: growth inhibition (%)
// units = %; emit number, no label

**Q:** Query: growth inhibition; subject: CC(CO)(CO)N1C(=O)C2C3c4ccccc4C(c4ccccc43)C2C1=O (configuration not stated)
**A:** 1.65

**Q:** Query: growth inhibition; subject: c1ccc2c(c1)C1c3ccccc3C2C2OC12 (configuration not stated)
**A:** -4

**Q:** Query: growth inhibition; subject: CC1(C)C2CCC(CN)C1C2 (configuration not stated)
**A:** -1.7

**Q:** Query: growth inhibition; subject: COc1ccc(Nc2nc(NNC(=O)Cc3ccccc3)nc(NNC(=O)c3ccncc3)n2)cc1
**A:** 30.1

**Q:** Query: growth inhibition; subject: COC(=O)CCC(=O)NC1=C(NCc2ccccc2)C(=O)c2ccccc2C1=O
**A:** 31.1

**Q:** Query: growth inhibition; subject: CCOc1cc(/C=C2\N=C(c3ccccc3)OC2=O)ccc1O
**A:** 2.6

**Q:** Query: growth inhibition; subject: COc1cnc2cc(C(=O)O)c3ccccc3c2c1
**A:** 13.2

**Q:** Query: growth inhibition; subject: CCN(CCC#N)C(=S)Nc1ccc(C)c(C)c1
**A:** 0

**Q:** Query: growth inhibition; subject: CN1C(=O)C=C(C=Nc2ccc(-c3ccccc3)cc2)C2CCCCC21 (configuration not stated)
**A:** -8.05

**Q:** Query: growth inhibition; subject: CC(=O)n1cc(CC(C)O)c(=O)[nH]c1=O (configuration not stated)
**A:** -16.2

**Q:** Query: growth inhibition; subject: COC(C)C(NC=O)C(=O)O (configuration not stated)
**A:** 7.45

**Q:** Query: growth inhibition; subject: CC(=O)OCCC(C)Nc1ccnc2cc(Cl)ccc12 (configuration not stated)
**A:** 6.35

---

# Test description: NCI Yeast Anticancer Drug Screen. Data for the mlh1 rad18 strain (AID 175)
# Experimental conditions: S. cerevisiae mlh1 rad18 strain growth inhibition; at 50.0 µM; hits give high values
The panel holds about 79,000 compounds, 15% with a hit somewhere; the sample as a whole holds those more often. Activity calls are given as the source filed them. Rule as the data show it: active = growth inhibition above about 70%; inactive = the rest. Where a SMILES comes first, the peptide text is derived from it. [ ]: non-standard residue; d: D form. The star is where a group is joined. Cbz = O=C(OCc1ccccc1)*; Nva = CCC[CH](N)C(=O)O
Readout type: growth inhibition

**Q:** Query: growth inhibition; subject: CCCC(NC(=O)OCc1ccccc1)C(=O)NC(CCSC)C(N)=O (stereo not given) (Cbz-[Nva]-Met-NH2; configuration not given here)
**A:** -27.9% (inactive)

**Q:** Query: growth inhibition; subject: CO[C@H]1CC[C@@]2(C)C(=CC[C@H]3[C@@H]4CC[C@H]([C@H](C)CCCC(C)C)[C@@]4(C)CC[C@@H]32)C1
**A:** 9% (inactive)

**Q:** Query: growth inhibition; subject: N/C(CCOCC/C(N)=N\O)=N/O
**A:** 6.5% (inactive)

**Q:** Query: growth inhibition; subject: Cc1cc(C)[n+](C)c(/C=C/c2ccc([N+](=O)[O-])cc2)n1
**A:** 23.2% (inactive)

**Q:** Query: growth inhibition; subject: Cc1nn(C(=O)c2cccnc2)c(-c2ccccc2)c1N=Nc1ccc(C(=O)O)cc1
**A:** 18.8% (inactive)

**Q:** Query: growth inhibition; subject: CN(C)C(=S)Oc1ccc([N+](C)(C)C)cc1
**A:** -1% (inactive)

**Q:** Query: growth inhibition; subject: CC1CN=C(N(Cc2ccccc2)C(=O)Nc2ccc(Cl)c(Cl)c2)S1 (stereo not given)
**A:** 0.35% (inactive)

**Q:** Query: growth inhibition; subject: O=C(OC1(c2nccc3ccccc23)CCCN(Cc2ccccc2)C1)c1ccccc1 (stereo not given)
**A:** 24.1% (inactive)

**Q:** Query: growth inhibition; subject: CCN(CC)CCCNc1nc2ccccc2c2[nH]c3ccc(OC)cc3c12
**A:** -28.2% (inactive)

**Q:** Query: growth inhibition; subject: CC(=O)OC(C)=O
**A:** -16.4% (inactive)

---

# Test description: NCI Yeast Anticancer Drug Screen. Data for the bub3 strain (AID 167)
# Experimental conditions: S. cerevisiae bub3 mutant strain, at 50.0 µM, hits give high values
This is part of a sample that, as a whole, favours compounds with a hit. Of some 79,000 tested, about 15% had one in any assay.
Task for the reader: assign each of the following molecules its reported growth inhibition.
// units = %; emit number, no label

**Q:** Query: growth inhibition; subject: CN1CCC2(CC1)C(=NC1CCCCC1)NC(=O)N2c1ccccc1
**A:** 6.6

**Q:** Query: growth inhibition; subject: CC(c1ccc([N+](=O)[O-])cc1)n1cnc2c(N(CCO)CCO)ncnc21 (centres undefined)
**A:** -12.2

**Q:** Query: growth inhibition; subject: CN(C)NC(=O)Nc1cccc2ccccc12
**A:** -26.9

**Q:** Query: growth inhibition; subject: COCn1cnc2c(=O)n(-c3ccc(OC)cc3)c(=S)n(-c3ccc(OC)cc3)c21
**A:** -21.4

---

# Test description: NCI Yeast Anticancer Drug Screen. Data for the cln2 rad14 strain (AID 165);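 note: 0% = growth equal to vehicle treated cultures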
# Experimental conditions: S. cerevisiae cln2 rad14 strain, at 50.0 µM
About 79,000 compounds went through this panel and 15% of them were active in at least one assay; those are over-represented in the sample as a whole. Active and inactive are the calls of the source. No stated cut-off is given here; in the data, active means growth inhibition above about 70%; inactive means the rest.
# output must be one of true (1) for active, false (0) for inactive

**Q:** GET /call?item= Cc1ccc(C(=N)c2ccccc2Cc2ccccc2)cc1 returns the recorded outcome of this test.
**A:** false (0)

**Q:** GET /call?item= N=C(Oc1ccccc1)c1ccccc1 returns the recorded outcome of this test.
**A:** false (0)

**Q:** GET /call?item= Cc1ccc(C2(O)c3ccccc3N=NN2C)cc1 (stereo not given) returns the recorded outcome of this test.
**A:** false (0)

**Q:** GET /call?item= C[N+](C)(C)c1ccc(C(=O)[O-])cc1 returns the recorded outcome of this test.
**A:** false (0)

**Q:** GET /call?item= COc1c(OC2OC(CO)C(O)C(O)C2O)cc2c(c1OC)-c1ccc(OC)c(=O)cc1C(NC(C)=O)CC2 (stereo not given) returns the recorded outcome of this test.
**A:** false (0)

**Q:** GET /call?item= Cc1cc2nc(Cl)n(C3OC(CO)C(O)C3O)c2cc1C (stereo not given) returns the recorded outcome of this test.
**A:** false (0)

**Q:** GET /call?item= CCCCCCC(O)CC[C@H]1CCC[C@@H](C)N1 (stereo not given in full) returns the recorded outcome of this test.
**A:** false (0)

**Q:** GET /call?item= CCCCN(CCCC)C(=O)OCC returns the recorded outcome of this test.
**A:** false (0)

**Q:** GET /call?item= Cc1cccc(NC(=O)Oc2cc(C)c(Cl)cc2C(C)C)c1 returns the recorded outcome of this test.
**A:** true (1)

**Q:** GET /call?item= CSc1nc(-c2ccc([N+](=O)[O-])cc2)oc1/N=C/c1ccc([N+](=O)[O-])cc1 returns the recorded outcome of this test.
**A:** false (0)

**Q:** GET /call?item= COC(=O)C(C#N)(CCc1ccc([N+](=O)[O-])cc1)CCc1ccc([N+](=O)[O-])cc1 returns the recorded outcome of this test.
**A:** false (0)

**Q:** GET /call?item= N#Cc1ccc(CCc2ccccc2)cc1 returns the recorded outcome of this test.
**A:** false (0)

**Q:** GET /call?item= Cc1cc2ccccc2c[n+]1CC(=O)c1ccc([N+](=O)[O-])cc1 returns the recorded outcome of this test.
**A:** false (0)

**Q:** GET /call?item= CC(=O)NCCN1CCN(C(C)=O)CC1 returns the recorded outcome of this test.
**A:** false (0)

**Q:** GET /call?item= CCOP(=O)(OCC)/C(=C/NC(=S)c1cccnc1)C(=O)OC returns the recorded outcome of this test.
**A:** false (0)

**Q:** GET /call?item= COc1cc2c(cc1OC)C1c3ccccc3CCCN1CC2 (stereo not given) returns the recorded outcome of this test.
**A:** false (0)

**Q:** GET /call?item= COc1ccc(C2=C(OC(=O)N(C)C)c3cccn3-c3cc(Cl)ccc3S2)cc1 returns the recorded outcome of this test.
**A:** false (0)

**Q:** GET /call?item= Cc1cc(C)c(C(=O)CC(C)C)c(C)c1 returns the recorded outcome of this test.
**A:** false (0)

**Q:** GET /call?item= CCC1C(=O)OCc2c1cc1n(c2=O)CCC12OCCO2 (stereo not given) returns the recorded outcome of this test.
**A:** false (0)

**Q:** GET /call?item= NC(=O)O/N=C/c1ccccn1 returns the recorded outcome of this test.
**A:** false (0)

**Q:** GET /call?item= C=CCc1ccc(OC(=O)Nc2cccc(OC)c2)c(OC)c1 returns the recorded outcome of this test.
**A:** false (0)

**Q:** GET /call?item= O=C(O)CSC(CC(=O)O)C(=O)O (stereo not given) returns the recorded outcome of this test.
**A:** false (0)

**Q:** GET /call?item= O=[N+]([O-])c1ccc(C=NCCO)cc1 returns the recorded outcome of this test.
**A:** false (0)

**Q:** GET /call?item= Cc1ccc(C(c2ccc(C)c(C)c2)C(O)C(O)C(O)C(O)CO)cc1C (stereo not given) returns the recorded outcome of this test.
**A:** false (0)

**Q:** GET /call?item= O=C(O)/C=C\C(=O)Nc1ccc(S(=O)(=O)Nc2nccs2)cc1 returns the recorded outcome of this test.
**A:** false (0)
